target: Amine oxidase [flavin-containing] A (Homo sapiens); assay: Inhibition of recombinant human MAO-A expressed in baculovirus infected BTI insect cells using tyramine as substrate pretreated for 30 mins followed by substrate addition incubated for 30 mins measured at 5 mins interval by horse-radish peroxidase/amplex red-based fluorometric method
Sequence (P21397 whole entry): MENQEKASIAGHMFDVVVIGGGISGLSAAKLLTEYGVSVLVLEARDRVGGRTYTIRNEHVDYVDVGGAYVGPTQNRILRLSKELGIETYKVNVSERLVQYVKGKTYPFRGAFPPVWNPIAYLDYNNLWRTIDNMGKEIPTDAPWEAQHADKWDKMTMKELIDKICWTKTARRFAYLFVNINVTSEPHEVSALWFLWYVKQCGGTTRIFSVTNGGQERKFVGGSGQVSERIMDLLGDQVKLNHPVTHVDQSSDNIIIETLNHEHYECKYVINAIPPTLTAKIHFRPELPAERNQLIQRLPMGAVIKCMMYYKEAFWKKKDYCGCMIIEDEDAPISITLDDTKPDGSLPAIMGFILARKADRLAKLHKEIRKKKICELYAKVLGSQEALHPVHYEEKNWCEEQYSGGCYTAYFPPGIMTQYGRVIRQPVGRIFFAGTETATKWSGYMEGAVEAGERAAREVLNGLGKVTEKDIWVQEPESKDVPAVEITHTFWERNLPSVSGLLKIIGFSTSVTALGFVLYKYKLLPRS
pIC50: −log10 of the molar value.
A collection of molecules and their measured pIC50

Examples with answers:
{"columns": ["smiles_record", "system_tested", "pIC50"],
 "data": [
  ["C#CCn1c(-c2ccc(C(=O)N/N=C/c3ccccc3OC)cc2)nc2ccccc21", "Amine oxidase [flavin-containing] A (Homo sapiens)", "≤ 3.00"],
  ["C#CCn1c(-c2ccc(C(=O)N/N=C/c3cccs3)cc2)nc2ccccc21", "Amine oxidase [flavin-containing] A (Homo sapiens)", "≤ 3.00"],
  ["C#CCn1c(-c2ccc(C(=O)N/N=C/c3ccc(Cl)cc3)cc2)nc2ccccc21", "Amine oxidase [flavin-containing] A (Homo sapiens)", "≤ 4.00"],
  ["C#CCn1c(-c2ccc(C(=O)N/N=C/c3cc(OC)cc(OC)c3)cc2)nc2ccccc21", "Amine oxidase [flavin-containing] A (Homo sapiens)", "≤ 4.00"]
]}

Query :: Bench note: what pIC50 did `C#CCn1c(-c2ccc(C(=O)N/N=C/c3cccn3C)cc2)nc2ccccc21` show?
Result :: ≤ 4.00

Query :: Bench note: what pIC50 did `C#CCn1c(-c2ccc(C(=O)N/N=C/c3ccc[nH]3)cc2)nc2ccccc21` show?
Result :: ≤ 3.00

Query :: Bench note: what pIC50 did `C#CCn1c(-c2ccc(C(=O)N/N=C/c3cccc(OC)c3)cc2)nc2ccccc21` show?
Result :: ≤ 4.00

Query :: Bench note: what pIC50 did `C#CCn1c(-c2ccc(C(=O)N/N=C/c3cccc(O)c3)cc2)nc2ccccc21` show?
Result :: ≤ 3.00

The measurements presented in this section are drawn from ChEMBL document CHEMBL4038273.
